Data provenance: the emibetuzumab library of Makowski et al. (2022)

B1: VH:VL chains; a variant is named by its letters at X, in order (parent)
chain 1: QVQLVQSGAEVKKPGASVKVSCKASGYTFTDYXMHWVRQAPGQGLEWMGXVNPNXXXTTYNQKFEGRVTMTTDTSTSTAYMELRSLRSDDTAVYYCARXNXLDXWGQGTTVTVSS
chain 2: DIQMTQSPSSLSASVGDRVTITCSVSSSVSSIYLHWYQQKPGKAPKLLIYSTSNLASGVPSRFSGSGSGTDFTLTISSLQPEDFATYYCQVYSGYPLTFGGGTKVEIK

Variants of: B1
Assay: yeast display scFab, FACS + sequencing
Outcome measure: non-specific binding call

Here are 5 variants together with their reported answers.
VRTRGALS; binds
DRGGGDAS; no binding
SEARSYAV; no binding
DKGGAAGD; no binding
YAREAALS; binds

Provide the reported non-specific binding call of each entry below, same order.
1. VKARGSAV
2. VTGGDYAV
3. YKRRSSVF

Response given:
binds
no binding
binds

Provide the reported non-specific binding call of each entry below, same order.
1. FRTGSAWF
2. AEGTSAVF
3. YRAEGALD
4. SEARSSSA

Response given:
["binds", "no binding", "binds", "no binding"]

Provide the reported non-specific binding call of each entry below, same order.
1. SKTRGAGV
2. YRGGDDLV
3. SKTKSDWA
4. VKGKGDLA
5. YKGKGSLF
6. VTGKGDGV
7. YKGRGVGD

Response given:
binds
no binding
no binding
no binding
binds
no binding
binds

Provide the reported non-specific binding call of each entry below, same order.
1. FKRRSSGD
2. VKGTDAWY

Response given:
1: binds; 2: no binding
